Values were extracted from patent US20220177587A1.

- measured.on: human CTLA-4 (human) (UniProt P16410)
- Sequence (P16410 36-223): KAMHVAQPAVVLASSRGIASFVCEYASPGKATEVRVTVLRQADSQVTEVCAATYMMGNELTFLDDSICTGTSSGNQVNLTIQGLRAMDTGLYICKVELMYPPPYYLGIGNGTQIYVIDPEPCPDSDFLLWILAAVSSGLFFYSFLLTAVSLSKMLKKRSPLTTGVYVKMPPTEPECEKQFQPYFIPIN
- experiment.notes: flow cytometry, transfected Expi293F cells
quantity.kind: MFI
Please reply with the number alone, leaving off any unit.

# count of solved cases: 2
CD80 C16S/H18L/R29D/Y31L/Q33H/K36G/M38I/T41A/M43R/M47T/E81V/L85R/K89N/A91T/F92P/K93V/R94L/T110A/I118V/H188D ECD-Fc (Fc fusion) VIHVTKEVKEVATLSSGLNVSVEELAQTDILWHKEGKIVLAMRSGDTNIWPEYKNRTIFDITNNLSIVILALRPSDEGTYVCVVRKYENDTPVLEHLAEVTLSVKADFPAPSISDFEVPTSNIRRIICSTSGGFPEPHLSWLENGEELNAINTTVSQDPETELYAVSSKLDFNMTTNHSFMCLIKYGDLRVNQTFNWNTTKQEHFPDN: 1800
CD80 H18L/R29D/Y31L/Q33H/K36G/M38I/T41A/M43R/M47T/E81V/L85R/K89N/A91T/F92P/K93V/R94L/F116S/T130A/H188D ECD-Fc (Fc fusion) VIHVTKEVKEVATLSCGLNVSVEELAQTDILWHKEGKIVLAMRSGDTNIWPEYKNRTIFDITNNLSIVILALRPSDEGTYVCVVRKYENDTPVLEHLAEVTLSVKADFPTPSISDSEIPTSNIRRIICSASGGFPEPHLSWLENGEELNAINTTVSQDPETELYAVSSKLDFNMTTNHSFMCLIKYGDLRVNQTFNWNTTKQEHFPDN: 2090

Now let's try a different one.
Quick one: MFI of CD80 Y53C/L70Q/D90G/T130A/N149D/N152T/H188D ECD-Fc (Fc fusion) VIHVTKEVKEVATLSCGHNVSVEELAQTRIYWQKEKKMVLTMMSGDMNIWPECKNRTIFDITNNLSIVIQALRPSDEGTYECVVLKYEKGAFKREHLAEVTLSVKADFPTPSISDFEIPTSNIRRIICSASGGFPEPHLSWLENGEELDAITTTVSQDPETELYAVSSKLDFNMTTNHSFMCLIKYGDLRVNQTFNWNTTKQEHFPDN ? 3110
